target: HLA-A2 on T2 cells pulsed with ZDHHC1 (376-384) peptide (human); assay: flow cytometry, 10 ug/ml, pulsed T2 cells
OBSERVABLE: ratio of MFI, pulsed to unpulsed (ratio)
Numbers only here, please. The scale is ratio.

Previously resolved entries follow.
>>> result_value("mAb24959N (antibody, human IgG4 S228P, kappa, V domains shown) VH: QLQLLESGPGLVKPSETLSLICTVSGGSIRGSSYYWGWIRQPPEKGLEWIGSIYSSGSTYYNPSLKSRVTISADTSKNQFSLKLSSVTAADTAVYYCARHGGITAVQLEFDPWGQGTLVTVSS VL: DIQMTQSPSSLSASVGDRVTITCQASQDISNYLKWYQQKPGKAPKILIHDASNLEIGVPSRFSGSGAGTDFIFTISSLQPEDIGTYYCQQYDNLPITFGQGTRLEIKR")
0.4
>>> result_value("mAb29814P (antibody, human IgG4 S228P, kappa, V domains shown) VH: QVQLVESGGGVVQPGRSLRLSCVASGFTFSSYGMHWVRQAPGKGLEWVAVIWYVGSNKYYGDSVKGRFTISRDNSKNTLYLQMNSLRAEDTAVYYCARDLIADRPGYYYNGMDVWGQGTTVTVSS VL: EIVMTQSPVTLFVSPGERATLSCRASQSVNTNLAWYQQQPGQAPRLLIHGASTRPTGVPARFSGSGSGTEFTLIISSLQSEDFAVYYCQQYNNWPPWTFGQGTKVEIKR")
0.6
>>> result_value("mAb28042P (antibody, human IgG4 S228P, kappa, V domains shown) VH: QLQLQESDPGLVKPSETLSLTCTVSGDSIRNSNYYWGWIRQPPGKGLEWIGSIYFSGRTYFNPSLKSRVTIPVDMSKNQFSLMLNSVTATDTAVYYCARHGGITAAGGFFDYWGQGTLVTVSS VL: DIQMTQSPSSLSASVGDRVTITCQASQDISNYLNWYQQKPGKAPNVLIYDASNLETGVPSRFSGSGSGTDFTFTISSLQPEDFATYYCQQNDNLPLTFGGGTKVEIKR")
0.5

Read the next record carefully.
Given the binder mAb28037P2 (antibody, human IgG4 S228P, kappa, V domains shown) VH: QVQLQESGPGLVKPSETLSLTCTVSGDSISVYYWTWIRQPPGKGLEWIGYVHYTGYTNYNPSLKSRVTMSVDTAKKQISLKVRSVTAADTAVYYCARTIPAAAHYYHGTDVWGPGTTVTVSS VL: DIQMTQSPSSLSASVGDRVTITCQANQDIRKYLNWYQQKSGKAPTLLIYEASNLETGAPSTFSGSGSGTEFTFTISSLRPEDIATYYCQQYESLPLTFGGGTKVEIKR , what is its reported ratio of MFI, pulsed to unpulsed?
0.5
